For each record, write down the corresponding TGI.
- System: T-47D breast
- procedure-summary: NCI tumour cell line growth inhibition, 48 h

Please fill in: TGI reported for Cc1c(N2C(=O)/C(=C\c3ccc(O)cc3)N=C2c2ccccc2)c(=O)n(-c2ccccc2)n1C = > 100 µM

Documented TGI of O=C(O)c1cn(C2CC2)c2cc(N3CCN(S(=O)(=O)c4ccc(Cl)c(Cl)c4)CC3)c(F)cc2c1=O : > 100 µM

Form field TGI, entry CC(NC(=O)C(C)C(=O)NCc1ccc(C(F)(F)F)cc1)C(N)=O (stereo not given) : > 100 µM

Kindly note the recorded TGI for c1ccc(Cn2cc3c(c2)-c2oncc2CC3)cc1 , which is > 100 µM

Record CC(=O)O[C@H]1CC[C@@]2(C)C(=CC[C@@H]3[C@@H]2CC[C@]2(C)c4nc(N)c(C#N)cc4C[C@@H]32)C1 , field TGI: > 96.6 µM

* * *

Would you kindly list GI50 for each of these compounds?
- System: TK-10 renal
- procedure-summary: NCI tumour cell line growth inhibition, 48 h

So for O=C1C2C(C(=O)[N]1[Hg][c]1ccccc1)C1(Cl)C(Cl)=C(Cl)C2(Cl)C1(Cl)Cl (stereo not given) , the logged GI50 turned out to be 1.51 µM

Form field GI50, entry COc1ccc(-c2nnc3n(C)c(=O)c4ccccc4n23)cc1O : 6.8 µM

Form field GI50, entry COC(=O)Nc1nc2c(OC)c(OC)c(OC)cc2[nH]1 : 66.6 µM

Reported GI50 for COc1ccc(/C=C/c2nc(N3CCOCC3)c3cc(F)c(F)cc3n2)cc1OC was 4.84 µM

The compound identified as CC12C=CC(C)(O1)C1C2c2ccccc2S1(=O)=O (stereo not given) registered its GI50 at > 100 µM

* * *

- System: OVCAR-8 ovarian
- procedure-summary: NCI tumour cell line growth inhibition, 48 h
Provide the recorded TGI for the entries that follow.
Give just the numeric value; µM need not be written.

For the molecule Cc1cc(C)cc(Nc2nccc(-c3c(-c4ccc(F)cc4)ncn3C3CCNCC3)n2)c1 , the measured TGI on OVCAR-8 ovarian was 5.01

// molecule ClCc1c(-c2ccccc2)nn(-c2ccccc2)c1CCl , assay OVCAR-8 ovarian, TGI value: 30.8

// assay OVCAR-8 ovarian, entry c1ccc(-c2n(Cc3ccc4ccccc4n3)c3ccccc3[n+]2Cc2ccc3ccccc3n2)cc1 , TGI value = 1.46

* * *

- Test system: OVCAR-5 ovarian
- procedure-summary: NCI tumour cell line growth inhibition, 48 h
Kindly supply the reported TGI values for the records listed here.

// recorded TGI for Cc1nnc(N)nc1/C=C\c1cccs1 : 68.3 µM

Entry COC1=NN2C(OC)(c3ccccc3)c3c(-c4ccccc4)sc(-c4ccccc4)c3C2(c2ccccc2)S1 (centres undefined) — recorded TGI = > 100 µM

Short answer for CC(=O)Oc1ccc(OC(Oc2ccccc2)c2ccccc2)cc1 (centres undefined) : TGI was > 100 µM

So for Cc1ccccc1NC(=S)N/N=C(/c1ccccc1)c1ccccn1 , the logged TGI turned out to be 10.6 µM

Record summary for CN(C)c1nc(N(C)C)nc(N(C)CN(C)c2nc(N(C)C)nc(N(C)C)n2)n1 : reported TGI = > 100 µM

Looking up COc1cc(C2c3cc4c(cc3C3OC(=O)C2C3CO)OCO4)cc(OC)c1OC (centres undefined) , I see its TGI listed as > 100 µM

The reported TGI of the molecule COc1ccc(-c2cc(-c3ccccc3)c(C#N)c(=O)[nH]2)cc1 was > 100 µM

Form field TGI, entry COC(=O)C1=C(OC(=O)/C(=C/c2ccc(Cl)cc2)c2ccccc2)C(C(=O)OC)[C@@]2(O)[C@@H](C(=O)OC)[C@H](C)C[C@@H]1[C@@H]2C(=O)OC (some centres undefined) : > 100 µM

According to the records, this molecule CCOC(=O)c1c(-c2[nH]c(C(=O)OCc3ccccc3)c(C)c2C(=O)OCC)[nH]c(C(=O)OCc2ccccc2)c1C displays TGI of > 100 µM

* * *

- System: UACC-257 melanoma
- procedure-summary: NCI tumour cell line growth inhibition, 48 h
For each record, write down the corresponding GI50.

Reported UACC-257 melanoma GI50 for item Clc1ccccc1-c1nc2ccccc2[nH]1 was > 100 µM

GI50 on UACC-257 melanoma for CCOC(=O)Nc1nc2c(F)c(F)c(F)cc2s1 is > 100 µM

The reported UACC-257 melanoma GI50 of COc1cc(C(=O)/C=C/c2c(-c3ccc(F)cc3)nc3sccn23)cc(OC)c1OC is 14.1 µM

For the molecule CC12C=CC(C)(O1)C1C2c2ccccc2S1(=O)=O (configuration not stated) , the measured GI50 on UACC-257 melanoma was 41.7 µM

Hey, UACC-257 melanoma data for CC(=O)OCCC/C(=C\c1ccc2ccccc2c1)[N+](=O)[O-] : GI50 came out at 1.81 µM

Form field GI50 for item COC(=O)c1[nH]nc(-c2ccccc2)c1N1CCCCC1 on UACC-257 melanoma: 39.7 µM

Measured on UACC-257 melanoma, CCC[CH2][Sn]1([CH2]CCC)[O]C(=O)C[S]1 has a documented GI50 of 1.4 µM

* * *

- Tested on: A498 renal
- procedure-summary: NCI tumour cell line growth inhibition, 48 h; in the data active means GI50 below about 0.43 µM; inactive means the rest
Answer with one of the outcomes given here: 1 (yes) for active, 0 (no) for inactive

Query :: Lab log entry: O=C1C2C(C(=O)[N]1[Hg][c]1ccccc1)C1(Cl)C(Cl)=C(Cl)C2(Cl)C1(Cl)Cl (stereo unspecified) — outcome as called in the assay?
Result :: 0 (no)

Query :: Status in this test for Cc1cc(-c2ccccc2)c(C)n1Cc1ccc(Cl)cc1 ?
Result :: 0 (no)

Query :: What outcome does the record of this test show for COc1cc2c(cc1OCCCCC(=O)Nc1ccc(-c3nc4ccccc4s3)cc1)N=C[C@@H]1CCCN1C2=O ?
Result :: 0 (no)

Query :: Per the assay record, what outcome was assigned to CC(=O)NNC(=O)c1nn(-c2ccc(Cl)cc2)cc1OC(C)=O ?
Result :: 0 (no)

Query :: Given O=C(Cc1ccc(/C=C/C(=O)c2ncc[nH]2)cc1)Nc1ccc(Br)cc1 , state the outcome it received in this test.
Result :: 0 (no)

Query :: Record lookup: outcome of this test for COc1ccc(C(=O)Nc2ncc(Cc3ccc(F)cc3)s2)cc1 ?
Result :: 1 (yes)

Query :: What is the recorded call for this compound in the test? Cc1c(N2C(=O)/C(=C\c3ccc(O)cc3)N=C2c2ccccc2)c(=O)n(-c2ccccc2)n1C
Result :: 0 (no)

Query :: What is the recorded call for this compound in the test? COc1ccc(-c2nnc3n(C)c(=O)c4ccccc4n23)cc1O
Result :: 0 (no)

Query :: # outcome recorded in this test, key = Cc1cc(N(CCCNc2ccnc3cc(Cl)ccc23)Cc2cccs2)nc(Cl)n1
Result :: 0 (no)

Query :: # outcome recorded in this test, key = O=C1C=C(N2CC2)c2ccccc2C1=O
Result :: 0 (no)

Query :: Identify the outcome logged in this assay for the compound shown: COc1cc(Nc2ncc3c(n2)-c2ccc(Cl)cc2C(c2c(F)cccc2OC)=NC3)ccc1C(=O)O
Result :: 1 (yes)

Query :: What is the recorded call for this compound in the test? NC(=O)Nc1ccc2ncnc(Nc3ccc(Cl)cc3)c2c1
Result :: 0 (no)

Query :: What is the recorded call for this compound in the test? CC1=C[C@H]2c3c(c(O)c(O)c4oc5cc(O)cc(O)c5c(=O)c34)[C@H](c3cc(O)c(O)c4oc5cc(O)cc(O)c5c(=O)c34)[C@H]2C(C)(C)C1
Result :: 0 (no)

Query :: Given COc1cc(/C=C/C(=O)c2c(C)n([O-])c3cc(C)c(C)cc3[n+]2=O)cc(OC)c1OC , state the outcome it received in this test.
Result :: 0 (no)

Query :: I would be grateful if you could indicate the recorded call for Cn1cc(-c2csc(-c3cn(CCN4CCOCC4)c4ccc(F)cc34)n2)c2cccnc21 .
Result :: 0 (no)

Query :: # fetch the recorded call for COc1ccc(N2CCN(CC(=O)N3CCN(c4nnc(-c5ccccc5)c(-c5ccccc5)n4)CC3)CC2)cc1 here
Result :: 0 (no)

* * *

- Test system: RXF 393 renal
- procedure-summary: NCI tumour cell line growth inhibition, 48 h; in the data active = GI50 below about 0.43 µM; inactive = the rest
Returns: one label drawn from active, inactive

Query :: Each compound tested received a call. Report the one for O=C1C2C(C(=O)[N]1[Hg][c]1ccccc1)C1(Cl)C(Cl)=C(Cl)C2(Cl)C1(Cl)Cl (stereo not drawn) .
Result :: active

Query :: I'd appreciate the recorded outcome for O=C(Cc1ccc(/C=C/C(=O)c2ncc[nH]2)cc1)Nc1ccc(Br)cc1 from this test.
Result :: inactive

Query :: Hi team, can someone confirm the assay call for Cc1cc(N(CCCNc2ccnc3cc(Cl)ccc23)Cc2cccs2)nc(Cl)n1 ?
Result :: inactive
